# assay-target: T1, mfGITR.mmh (Macaca fasicularis)
# T1 construct: soluble monomeric construct; also called Macaca fasicularis (mf) GITR.mmh; cynomolgus GITR protein
# T1 chain: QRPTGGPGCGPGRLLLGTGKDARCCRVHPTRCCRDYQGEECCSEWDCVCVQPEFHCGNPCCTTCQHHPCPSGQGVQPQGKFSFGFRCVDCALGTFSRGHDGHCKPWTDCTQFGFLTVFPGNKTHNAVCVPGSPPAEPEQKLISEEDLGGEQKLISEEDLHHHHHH
# method-summary: SPR 37C, mAb capture
test-readout: log10(Kd) (log10 of the value in nM)
Please be aware that the numbers have been log10-transformed from Kd in nM.

[[record]]
binder = "H1H14491P (antibody, human IgG1, V domains shown, human IgG1 (H1H)) VH: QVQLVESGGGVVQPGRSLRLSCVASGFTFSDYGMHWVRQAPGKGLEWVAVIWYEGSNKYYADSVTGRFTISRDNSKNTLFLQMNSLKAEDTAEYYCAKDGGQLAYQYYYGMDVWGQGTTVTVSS VL: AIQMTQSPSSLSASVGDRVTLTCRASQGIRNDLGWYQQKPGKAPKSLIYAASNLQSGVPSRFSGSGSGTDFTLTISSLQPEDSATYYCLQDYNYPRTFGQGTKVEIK"
meas_value = 1.88

[[record]]
binder = "H4H14516P (antibody, human IgG4, V domains shown, human IgG4 (H4H)) VH: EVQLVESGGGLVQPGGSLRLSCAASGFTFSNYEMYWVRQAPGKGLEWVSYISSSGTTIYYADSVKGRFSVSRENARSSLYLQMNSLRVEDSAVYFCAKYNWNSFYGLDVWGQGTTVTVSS VL: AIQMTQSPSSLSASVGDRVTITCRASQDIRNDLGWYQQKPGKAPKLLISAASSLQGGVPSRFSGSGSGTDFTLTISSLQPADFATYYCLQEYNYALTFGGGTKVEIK"
meas_value = 1.77

[[record]]
binder = "H1H14495P (antibody, human IgG1, V domains shown, human IgG1 (H1H)) VH: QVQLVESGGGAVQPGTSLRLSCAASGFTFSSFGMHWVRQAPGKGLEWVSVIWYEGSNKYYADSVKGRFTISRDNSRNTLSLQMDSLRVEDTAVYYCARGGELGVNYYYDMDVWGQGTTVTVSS VL: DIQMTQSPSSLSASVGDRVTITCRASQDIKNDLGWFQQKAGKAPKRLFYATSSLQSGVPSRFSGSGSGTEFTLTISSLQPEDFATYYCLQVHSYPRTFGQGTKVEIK"
meas_value = 1.39


Can you give me log10(Kd) for all of these, one by one?
1. H4H14530P (antibody, human IgG4, V domains shown, human IgG4 (H4H)) VH: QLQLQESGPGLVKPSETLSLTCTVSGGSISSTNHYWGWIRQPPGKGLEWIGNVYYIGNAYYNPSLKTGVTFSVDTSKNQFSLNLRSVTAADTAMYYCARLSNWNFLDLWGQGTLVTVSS VL: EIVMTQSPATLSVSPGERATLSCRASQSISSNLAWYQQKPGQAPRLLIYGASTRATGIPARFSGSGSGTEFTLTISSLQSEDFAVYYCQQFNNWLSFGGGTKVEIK
2. H4H14525P (antibody, human IgG4, V domains shown, human IgG4 (H4H)) VH: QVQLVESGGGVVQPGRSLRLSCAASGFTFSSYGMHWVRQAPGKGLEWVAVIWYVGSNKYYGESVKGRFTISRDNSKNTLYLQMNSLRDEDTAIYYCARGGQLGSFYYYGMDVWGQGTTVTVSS VL: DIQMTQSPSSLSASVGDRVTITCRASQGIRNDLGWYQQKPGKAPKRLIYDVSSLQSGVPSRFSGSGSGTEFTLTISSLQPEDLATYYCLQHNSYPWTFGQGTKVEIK

[0.41, 2.19]

These measurements were taken from patent US20170355774A1.
